Where these numbers come from: PubChem BioAssay (NCI)

System: COLO 205 colon
Assay: NCI-60 one-dose screen, 48 h
Settings: 10 µM unless noted
The panel holds about 83,000 compounds, 20% with a hit somewhere; the sample as a whole holds those more often. Active and inactive are the calls of the source. The calls were made as follows: active = growth percent below 10; inactive = the rest.
Select the correct class. Options are yes (1) (active), no (0) (inactive) and nothing else.

Ask | Short answer needed: outcome of this test for "COc1cc(F)c(/C=C/c2cc(/C=C/c3cc(OC)c(OC)cc3F)n(-c3cc(F)cc(F)c3)n2)cc1OC" ?
Reply | no (0)

Ask | Called result for "Nc1[nH]nc(Nc2ccccc2)c1-c1nc2ccccc2s1"
Reply | no (0)

Ask | Short answer needed: outcome of this test for "CCN(CC)/C([O-])=c1\cccc\c1=C1\N=C(c2ccccc2)N=C1[n+]1ccc(-c2ccccc2)cc1" ?
Reply | no (0)

Ask | Returns: the outcome recorded for "C[C@]12CCc3c(ccc4cc(O)ccc34)[C@@H]1C[C@H](O)[C@@H]2O" in this assay.
Reply | no (0)

Ask | Lab log entry: "CC(=O)c1nn(-c2ccccc2)/c(=N/N=Cc2cn(-c3ccccc3)nc2-c2cc3ccccc3oc2=O)s1" — outcome as called in the assay?
Reply | no (0)

Ask | I'd appreciate the recorded outcome for "CC(=NCc1ccccc1)c1ccc(O)cc1O" from this test.
Reply | no (0)

Ask | GET /call?item= "N=c1ccccn1CCO" returns the recorded outcome of this test.
Reply | no (0)

Ask | Could you check what this test reported for "CC(C)=CCc1cc(O)c(O)c2oc3cc(O)cc(O)c3c(=O)c12" ?
Reply | no (0)

Ask | What call does the record list for O=C1OCC2=C1C(c1cccc(C(F)(F)F)c1)c1cc3c(cc1N2CCO)CCC3 (stereo not given) ?
Reply | yes (1)

Ask | # lookup: test call for "CCN(CC)CCOc1ccccc1C"
Reply | no (0)

----------
Test system: ACHN renal
Assay: NCI-60 one-dose screen, 48 h (100 = growth as untreated, 0 = no growth, -100 = all killed)
Settings: 10 µM unless noted
This is part of a sample that, as a whole, favours compounds with a hit. Of some 83,000 tested, about 20% had one in any assay.
Met if growth is below 80%. Not met if not; exact matches included in Not met.

Ask | Regarding "COc1ccc(C/C(C)=C(\c2ccc(O)cc2)c2ccc(OCCCN(C)C)cc2)cc1" , kindly confirm whether its growth is beneath 80%.
Reply | Not met

Ask | # TODO verify growth < 80% strictly for this compound: "COC(=O)c1c2c(c(C)[n+]([O-])c1C)C(=O)C(NCCN1CCOCC1)=CC2=O"
Reply | Not met

Ask | Please state whether growth is below 80% for "COc1ccc(/C=N/NC(=O)CN2CCN(c3cc4c(cc3F)c(=O)c(C(=O)O)cn4C3CC3)CC2)cc1O"
Reply | Not met

Ask | Is growth of "Cc1c(C(=O)OCCCCOC(=O)c2c(C)n(C)c3scc[n+]23)[n+]2ccsc2n1C" strictly below 80%?
Reply | Not met

Ask | # check: growth < 80% for "CCN1CCN(CC(=O)Nc2nc3ccc(NCc4ccc(C)cc4)cc3s2)CC1"
Reply | Not met

Ask | Dear reviewer, please state whether "Oc1ccccc1C=Nc1ccc(N2CCN(c3ccccc3)CC2)cc1" has growth strictly beneath 80%.
Reply | Met

Ask | A record lists "N=c1c2c(-c3ccccc3)c(-c3ccccc3)oc2ncn1NC(=O)c1cccnc1" . Is its growth below 80%?
Reply | Not met

Ask | Consider "O=C1/C(=C/c2cn(-c3ccccc3)nc2-c2ccccc2)SC(=S)N1c1ccccc1" . Does its growth lie strictly below 80%?
Reply | Not met

Ask | Say whether its growth is strictly beneath 80%. Entry: "C=C(C)[C@@H]1CC[C@]2(C)[C@H](CC(=O)N[C@H]3[C@@H]4C[C@](C)(C(=O)OC)CC[C@]4(C)CC[C@]32C)[C@@]1(C)CCC#N"
Reply | Not met

Ask | Problem: For the compound "O=C(Nc1ccc2ccccc2c1)c1cc2ccccc2cc1O" , is growth under 80%?
Reply | Not met

Ask | In plain terms, does "CCN(CC)/C([O-])=c1\cccc\c1=C1\N=C(c2ccccc2)N=C1[n+]1ccc(-c2ccccc2)cc1" come in under 80% for growth?
Reply | Not met

Ask | Input CC(Sc1ccccc1)C(=O)O (centres undefined) ; condition: growth strictly below 80%. Does it hold?
Reply | Not met

Ask | Hello, I'm reviewing records and need to know if growth of "COc1ccc(-c2cc(-c3cccnc3)nc3sc4c(Cl)nnnc4c23)cc1OC" is below 80%. Could you check?
Reply | Not met

Ask | Decide: growth of "COc1ccc(/C=C/C(=O)c2cc3c(N)c(C(=O)Nc4ccccc4Cl)sc3nc2C)cc1" strictly below 80%?
Reply | Met

Ask | Could you please tell me whether growth recorded for "COc1ccc(-c2ccc(-c3ccc(C(=N)N)cn3)s2)cc1Cl" is less than 80%?
Reply | Met

Ask | Does "COc1ccccc1/C=C1\COc2ccc(O)c(O)c2C1=O" have growth strictly under 80%?
Reply | Met

Ask | For this compound, is growth lower than 80%? "COc1ccc(/C=N\Nc2nc(SCC(C)C)nc(-c3ccc(OC)cc3)c2C#N)cc1"
Reply | Met

Ask | Hello, I'm reviewing records and need to know if growth of "CCOC(=O)C(=CCC(C)C)C(=O)OCC" is below 80%. Could you check?
Reply | Not met

Ask | Problem: For the compound "[2H]C([2H])([2H])Oc1cccc(/C=C/C(=O)/C=C(/C=C/c2cccc(OC([2H])([2H])[2H])c2OC([2H])([2H])[2H])OB(F)F)c1OC([2H])([2H])[2H]" , is growth under 80%?
Reply | Met

Ask | Problem: For the compound "Fc1ccccc1-c1cnn2cc(-c3ccccc3)cnc12" , is growth under 80%?
Reply | Not met

Ask | Please state whether growth is below 80% for "COc1ccc(-c2[nH]c3ccccc3c2-c2ccc(OC)cc2)cc1"
Reply | Met

Ask | Please check: growth for O=C(CN1C(=O)S/C(=C\C(Cl)=C\c2ccccc2)C1=O)NC1C=CS(=O)(=O)C1 (centres undefined) , strictly under 80% or not?
Reply | Met

Ask | growth strictly < 80% for this compound? "CC1=C2[C@@H](CC1)[C@]1(C)O[C@@](C3CC3)(C[C@H]1OC(=O)CO)[C@H]2OC(=O)/C=C/c1ccccc1"
Reply | Met

Ask | Problem: For the compound CCCCCO/N=C\c1c2c(O)c3c(O)c(C)c4c(c3c1O)C(=O)C(C)(O/C=C\C(OC)C(C)C(OC(C)=O)C(C)C(O)C(C)C(O)C(C)/C=C\C=C(\C)C(=O)N2)O4 (centres undefined) , is growth under 80%?
Reply | Met
